# Protocol Summary: Solid-state (bulk) stability after 9 weeks storage, HPLC
# Assay type: physicochemical
# Assay Conditions: solid state, relative retention time 0.40; 9 weeks at 50° C.; read-out: % Degradation (% peak area @ 50° C.-% peak area @ 4° C.)

>  <Compound>
CNS(=O)(=O)Cc1ccc2[nH]cc(C[C@H]3CCCN3C)c2c1 [Free base]

>  <degraded at 1512 h (%)>
0.05

$$$$

---

Property: solubility at 16 h; scope: individual compounds
# Protocol Summary: Saturated solubility of free base and fumarate salt in water (HPLC)
# Type: physicochemical
# Assay Conditions: saturated solubility in water (MilliQ), 16 hours at room temperature

>  <Compound>
CNS(=O)(=O)Cc1ccc2[nH]cc(C[C@H]3CCCN3C)c2c1 [Free base]

>  <solubility at 16 h [mg/mL]>
0.12

$$$$
>  <Compound>
CNS(=O)(=O)Cc1ccc2[nH]cc(C[C@H]3CCCN3C)c2c1.O=C(O)/C=C/C(=O)O [Fumarate salt]

>  <solubility at 16 h [mg/mL]>
67.5

$$$$
